- SYSTEM_TESTED: Recombinant human LTC4 synthase (Homo sapiens)
- Construct: made in house; host or cells: Pichia pastoris ('Piccia pastoralis' [sic])
- Sequence (Q16873 whole entry): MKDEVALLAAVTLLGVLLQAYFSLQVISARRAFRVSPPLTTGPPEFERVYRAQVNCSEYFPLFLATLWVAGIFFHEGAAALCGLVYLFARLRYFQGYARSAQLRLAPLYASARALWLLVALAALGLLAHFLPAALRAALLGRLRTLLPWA
- ASSAY_REMARKS: In vitro assay Method B: LTC4 synthase, LTA4 to LTC4, HTRF detection
- Format: biochemical
- CONDITIONS: total concentration of title compound 10 μM, read-out: % inh. of LTC4 synthase
QUANTITY_MEASURED: inhibition at 10 µM (%)

Look over these answered cases.
CCN(c1ccc(-n2c(CC(=O)O)c(C(=O)O)c3cc(Oc4ccc(OC(F)(F)F)cc4)ccc32)cc1)c1cccc(C)c1 ... 94
CC(C)Oc1ccc(Oc2ccc3c(c2)c(C(=O)O)c(CC(=O)O)n3-c2ccc(OCc3cccc(Cl)c3)cc2)cc1 ... 94
CC(C)Oc1ccc(Oc2ccc3c(c2)c(C(=O)O)c(CC(=O)O)n3-c2ccc(OCc3ccccc3Cl)cc2)cc1 ... 95
CC(C)Oc1ccc(Oc2ccc3c(c2)c(C(=O)O)c(CC(=O)O)n3-c2ccc(OCc3ccc(Cl)c(Cl)c3)cc2)cc1 ... 93
CCN(c1ccccc1)c1ccc(-n2c(CC(=O)O)c(C(=O)O)c3cc(Oc4ccc(OC(F)(F)F)cc4)ccc32)cc1 ... 100

[I] CC(C)Oc1ccc(Oc2ccc3c(c2)c(C(=O)O)c(CC(=O)O)n3-c2ccc(OCc3ccccc3)cc2)cc1
[II] CC(C)Oc1ccc(Oc2ccc3c(c2)c(C(=O)O)c(CC(=O)O)n3-c2ccc(Oc3ccccc3Cl)cc2)cc1
Which of the two gives a bigger number for inhibition at 10 µM: I or II ? Indicate your choice by writing its label.
I
(I: 99%, II: 9%)
